The reported numbers originate from PubChem BioAssay (Tox21).

# Target Or System: Nuclear receptor subfamily 1 group I member 2 (Rattus norvegicus) (UniProt Q9R1A7)
# Sequence (Q9R1A7 whole entry, looked up): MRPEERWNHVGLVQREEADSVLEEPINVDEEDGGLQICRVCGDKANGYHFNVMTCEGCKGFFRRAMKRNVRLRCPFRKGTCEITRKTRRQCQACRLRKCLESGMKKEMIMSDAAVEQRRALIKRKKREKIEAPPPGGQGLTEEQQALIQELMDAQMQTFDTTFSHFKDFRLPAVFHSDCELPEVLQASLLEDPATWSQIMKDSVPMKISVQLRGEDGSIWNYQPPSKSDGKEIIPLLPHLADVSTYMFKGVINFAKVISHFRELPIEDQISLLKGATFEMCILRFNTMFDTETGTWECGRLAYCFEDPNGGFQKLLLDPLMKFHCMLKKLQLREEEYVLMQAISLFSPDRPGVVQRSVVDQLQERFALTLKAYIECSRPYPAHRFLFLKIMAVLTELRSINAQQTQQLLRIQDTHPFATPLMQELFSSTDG
# Assay Notes: Rat pregnane X receptor (rPXR) activation by small molecules, qHTS assay (AID 1346983); further: on the % scale 0 is the no-effect control and ±100 the full control effect; nearly all actives have a fitted effect of over 20% in size
# Particulars: rPXR luciferase reporter cells, One-Glo luminescence, 24 h; stronger effect = higher value
Results filed as inconclusive are left out.
Readout: max activation (%)

{"Record Smiles": "O=C1OC2(c3ccccc31)c1cc(Br)c(O)c(Br)c1Oc1c2cc(Br)c(O)c1Br", "Experimental Result": -7.26}
{"Record Smiles": "CC/C(=C(\\c1ccccc1)c1ccc(OCCN(C)C)cc1)c1ccccc1", "Experimental Result": -0.827}
{"Record Smiles": "O=c1[nH]cnc2c1ncn2[C@H]1CC[C@@H](CO)O1", "Experimental Result": 0.0547}
{"Record Smiles": "CCOC(N)=O", "Experimental Result": -2.09}
{"Record Smiles": "CN1CCc2cccc3c2[C@H]1Cc1ccc(O)c(O)c1-3", "Experimental Result": 9.82}
{"Record Smiles": "O=C1c2c(O)cccc2Cc2cccc(O)c21", "Experimental Result": -3.04}

---

# Assay Notes: qHTS RealTime-Glo MT Cell Viability Assay in HEK293 cells - 32 hour (AID 1224868); further: top concentration of the series differs between compounds; on the % scale 0 is the no-effect control and ±100 the full control effect; nearly all actives have a fitted effect of over 50% in size
# Particulars: RealTime-Glo luminescence; series mostly up to 76.8 µM
Inconclusive results are not listed. Calls of active or inactive are those of the source. The call rests on the fitted dose curve; in most records, active means well fitted cell-killing curve with a large enough effect in the repeat runs; inconclusive means weak or mixed curves, or effect the other way; inactive means flat fitted curve, though single readings scatter.
Readout: outcome

{"Record Smiles": "Cc1ncc([N+](=O)[O-])n1C", "Experimental Result": "inactive"}
{"Record Smiles": "CC1(C)O[C@@H]2C[C@H]3[C@@H]4CCC5=CC(=O)C=C[C@]5(C)[C@@]4(F)[C@@H](O)C[C@]3(C)[C@]2(C(=O)CO)O1", "Experimental Result": "inactive"}
{"Record Smiles": "CCCc1cc(=O)[nH]c(=S)[nH]1", "Experimental Result": "inactive"}

---

# Target Or System: Cytochrome P450 2C9 (Homo sapiens) (UniProt P11712)
# Sequence (P11712 whole entry, looked up): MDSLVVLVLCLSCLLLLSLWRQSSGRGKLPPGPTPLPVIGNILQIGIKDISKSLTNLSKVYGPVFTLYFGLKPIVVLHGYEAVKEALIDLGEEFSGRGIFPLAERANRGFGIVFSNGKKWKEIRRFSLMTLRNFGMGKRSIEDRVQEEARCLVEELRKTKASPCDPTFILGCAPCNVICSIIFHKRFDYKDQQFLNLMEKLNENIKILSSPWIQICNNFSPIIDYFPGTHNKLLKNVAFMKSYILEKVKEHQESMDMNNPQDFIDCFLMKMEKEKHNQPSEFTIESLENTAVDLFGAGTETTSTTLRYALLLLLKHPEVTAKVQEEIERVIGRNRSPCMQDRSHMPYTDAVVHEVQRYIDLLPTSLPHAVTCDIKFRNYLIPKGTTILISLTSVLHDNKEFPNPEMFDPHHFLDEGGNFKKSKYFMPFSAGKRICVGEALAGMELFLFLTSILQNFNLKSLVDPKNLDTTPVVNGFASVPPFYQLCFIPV
# Assay Notes: Cytochrome P450 Family 2 Subfamily C Member 9 (CYP2C9) small molecule antagonists: luciferase reporter qHTS assay (AID 1671198); further: nearly all actives have a fitted effect of over 50% in size
# Particulars: P450-Glo CYP2C9 enzyme assay, luciferin luminescence; series mostly up to 115 µM
Records with an inconclusive call do not appear. The source made the active and inactive calls. The call rests on the fitted dose curve; in most records, active means well fitted inhibition curve with a large enough effect in the repeat runs; inconclusive means weak or mixed curves; inactive means no such curve, though single readings can be large or run the other way.
Possible outcomes: t (active), f (inactive)

{"Record Smiles": "CCN(Cc1c(F)cccc1Cl)c1c([N+](=O)[O-])cc(C(F)(F)F)cc1[N+](=O)[O-]", "Target Or System": "Cytochrome P450 2C9 (Homo sapiens) (UniProt P11712)", "Discrete Label": "t"}
{"Record Smiles": "Cc1cccc(C)c1", "Target Or System": "Cytochrome P450 2C9 (Homo sapiens) (UniProt P11712)", "Discrete Label": "f"}
{"Record Smiles": "NS(=O)(=O)c1cc2c(cc1Cl)NCNS2(=O)=O", "Target Or System": "Cytochrome P450 2C9 (Homo sapiens) (UniProt P11712)", "Discrete Label": "f"}
{"Record Smiles": "Cc1ncc([N+](=O)[O-])n1CCO", "Target Or System": "Cytochrome P450 2C9 (Homo sapiens) (UniProt P11712)", "Discrete Label": "f"}
{"Record Smiles": "O=C(O)c1ccccc1", "Target Or System": "Cytochrome P450 2C9 (Homo sapiens) (UniProt P11712)", "Discrete Label": "f"}
{"Record Smiles": "O=c1[nH]cc(F)c(=O)[nH]1", "Target Or System": "Cytochrome P450 2C9 (Homo sapiens) (UniProt P11712)", "Discrete Label": "f"}
{"Record Smiles": "Nc1ccc(O)c([N+](=O)[O-])c1", "Target Or System": "Cytochrome P450 2C9 (Homo sapiens) (UniProt P11712)", "Discrete Label": "t"}
{"Record Smiles": "NC(CO)(CO)CO", "Target Or System": "Cytochrome P450 2C9 (Homo sapiens) (UniProt P11712)", "Discrete Label": "f"}
{"Record Smiles": "CC(=O)C(=O)O", "Target Or System": "Cytochrome P450 2C9 (Homo sapiens) (UniProt P11712)", "Discrete Label": "f"}
{"Record Smiles": "O=c1[nH]cnc2c1ncn2[C@H]1CC[C@@H](CO)O1", "Target Or System": "Cytochrome P450 2C9 (Homo sapiens) (UniProt P11712)", "Discrete Label": "f"}
{"Record Smiles": "CCCc1cc(=O)[nH]c(=S)[nH]1", "Target Or System": "Cytochrome P450 2C9 (Homo sapiens) (UniProt P11712)", "Discrete Label": "f"}
{"Record Smiles": "COc1ccc(CN(CCN(C)C)c2ccccn2)cc1", "Target Or System": "Cytochrome P450 2C9 (Homo sapiens) (UniProt P11712)", "Discrete Label": "f"}
{"Record Smiles": "C[C@](N)(Cc1ccc(O)c(O)c1)C(=O)O", "Target Or System": "Cytochrome P450 2C9 (Homo sapiens) (UniProt P11712)", "Discrete Label": "f"}
{"Record Smiles": "Cc1cc(C)nc(NS(=O)(=O)c2ccc(N)cc2)n1", "Target Or System": "Cytochrome P450 2C9 (Homo sapiens) (UniProt P11712)", "Discrete Label": "f"}
{"Record Smiles": "O=CC(=O)c1ccccc1", "Target Or System": "Cytochrome P450 2C9 (Homo sapiens) (UniProt P11712)", "Discrete Label": "f"}
{"Record Smiles": "CCN(CC)C(=O)c1cccc(C)c1", "Target Or System": "Cytochrome P450 2C9 (Homo sapiens) (UniProt P11712)", "Discrete Label": "f"}
{"Record Smiles": "CC(=O)CCC(=O)O", "Target Or System": "Cytochrome P450 2C9 (Homo sapiens) (UniProt P11712)", "Discrete Label": "f"}
{"Record Smiles": "CCOc1ccc(NC(C)=O)cc1", "Target Or System": "Cytochrome P450 2C9 (Homo sapiens) (UniProt P11712)", "Discrete Label": "f"}
{"Record Smiles": "Nc1ccc2c(c1)CN1C(=O)c3ccccc3C1=N2", "Target Or System": "Cytochrome P450 2C9 (Homo sapiens) (UniProt P11712)", "Discrete Label": "t"}
{"Record Smiles": "NC(=O)c1cccnc1", "Target Or System": "Cytochrome P450 2C9 (Homo sapiens) (UniProt P11712)", "Discrete Label": "f"}
{"Record Smiles": "Nc1ccc([N+](=O)[O-])cc1O", "Target Or System": "Cytochrome P450 2C9 (Homo sapiens) (UniProt P11712)", "Discrete Label": "t"}
{"Record Smiles": "CCCCCCCCCCCC[N+](C)(C)Cc1ccccc1", "Target Or System": "Cytochrome P450 2C9 (Homo sapiens) (UniProt P11712)", "Discrete Label": "t"}
{"Record Smiles": "F[B-](F)(F)F", "Target Or System": "Cytochrome P450 2C9 (Homo sapiens) (UniProt P11712)", "Discrete Label": "f"}
{"Record Smiles": "CC12CCC(CC1)C(C)(C)O2", "Target Or System": "Cytochrome P450 2C9 (Homo sapiens) (UniProt P11712)", "Discrete Label": "f"}
{"Record Smiles": "NC(=O)n1c(O)c(C(=O)c2cccs2)c2cc(Cl)ccc21", "Target Or System": "Cytochrome P450 2C9 (Homo sapiens) (UniProt P11712)", "Discrete Label": "t"}
{"Record Smiles": "CN[C@H]1CC[C@@H](c2ccc(Cl)c(Cl)c2)c2ccccc21", "Target Or System": "Cytochrome P450 2C9 (Homo sapiens) (UniProt P11712)", "Discrete Label": "t"}
{"Record Smiles": "CC(O)(P(=O)(O)O)P(=O)(O)O", "Target Or System": "Cytochrome P450 2C9 (Homo sapiens) (UniProt P11712)", "Discrete Label": "f"}
{"Record Smiles": "Cc1ncc([N+](=O)[O-])n1C", "Target Or System": "Cytochrome P450 2C9 (Homo sapiens) (UniProt P11712)", "Discrete Label": "f"}
{"Record Smiles": "O=C1O[C@H]([C@@H](O)CO)C(O)=C1O", "Target Or System": "Cytochrome P450 2C9 (Homo sapiens) (UniProt P11712)", "Discrete Label": "f"}
{"Record Smiles": "CCCCCCCC(=O)OCC(COC(=O)CCCCCCC)OC(=O)CCCCCCC", "Target Or System": "Cytochrome P450 2C9 (Homo sapiens) (UniProt P11712)", "Discrete Label": "f"}
